protein stability index values for the variants below.
B1: TRIM43 (parent)
chain: YQEIFQQLQRSWVKMDQKSKHLKE

Variants of: B1
Experiment: protein stability index of a GFP-peptide fusion (GPS, HEK-293T) (PSI 1-6); higher = more stable;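 note: lentivirally expressed fusions sorted by FACS into six bins by GFP to DsRed ratio, PSI derived from sequencing read proportions per bin multiplied by bin number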
Settings: c terminus: a fixed tail appended
OBSERVATION TYPE: protein stability index

>  <SEQUENCE CHANGE>
Y1N

>  <NUMERIC VALUE>
3.73

$$$$
>  <SEQUENCE CHANGE>
E24P

>  <NUMERIC VALUE>
1.81

$$$$
>  <SEQUENCE CHANGE>
D16G

>  <NUMERIC VALUE>
1.76

$$$$
>  <SEQUENCE CHANGE>
K23T

>  <NUMERIC VALUE>
2.14

$$$$
>  <SEQUENCE CHANGE>
K18S

>  <NUMERIC VALUE>
2

$$$$
>  <SEQUENCE CHANGE>
H21D

>  <NUMERIC VALUE>
2.56

$$$$
>  <SEQUENCE CHANGE>
Q6G

>  <NUMERIC VALUE>
2.52

$$$$
>  <SEQUENCE CHANGE>
F5W

>  <NUMERIC VALUE>
2.19

$$$$
>  <SEQUENCE CHANGE>
E3T

>  <NUMERIC VALUE>
1.52

$$$$
>  <SEQUENCE CHANGE>
Q7G

>  <NUMERIC VALUE>
2.59

$$$$
>  <SEQUENCE CHANGE>
W12Q

>  <NUMERIC VALUE>
2.65

$$$$
>  <SEQUENCE CHANGE>
Y1T

>  <NUMERIC VALUE>
2.88

$$$$
>  <SEQUENCE CHANGE>
L22R

>  <NUMERIC VALUE>
2.75

$$$$
>  <SEQUENCE CHANGE>
L22T

>  <NUMERIC VALUE>
2.62

$$$$
>  <SEQUENCE CHANGE>
F5S

>  <NUMERIC VALUE>
3.39

$$$$
>  <SEQUENCE CHANGE>
K23W

>  <NUMERIC VALUE>
2.33

$$$$
>  <SEQUENCE CHANGE>
F5H

>  <NUMERIC VALUE>
3.65

$$$$
>  <SEQUENCE CHANGE>
K23R

>  <NUMERIC VALUE>
1.22

$$$$
>  <SEQUENCE CHANGE>
F5E

>  <NUMERIC VALUE>
4.52

$$$$
>  <SEQUENCE CHANGE>
K14I

>  <NUMERIC VALUE>
1.86

$$$$
>  <SEQUENCE CHANGE>
Y1V

>  <NUMERIC VALUE>
1.29

$$$$
>  <SEQUENCE CHANGE>
W12V

>  <NUMERIC VALUE>
2.69

$$$$
>  <SEQUENCE CHANGE>
Q7T

>  <NUMERIC VALUE>
1.82

$$$$
>  <SEQUENCE CHANGE>
F5Q

>  <NUMERIC VALUE>
3.7

$$$$
>  <SEQUENCE CHANGE>
Q7Y

>  <NUMERIC VALUE>
2.53

$$$$
>  <SEQUENCE CHANGE>
Q9M

>  <NUMERIC VALUE>
2.32

$$$$
>  <SEQUENCE CHANGE>
Q7F

>  <NUMERIC VALUE>
1.52

$$$$
>  <SEQUENCE CHANGE>
I4V

>  <NUMERIC VALUE>
2.16

$$$$
>  <SEQUENCE CHANGE>
Y1I

>  <NUMERIC VALUE>
2.04

$$$$
>  <SEQUENCE CHANGE>
Y1F

>  <NUMERIC VALUE>
1.58

$$$$
>  <SEQUENCE CHANGE>
Q2W

>  <NUMERIC VALUE>
2.3

$$$$
>  <SEQUENCE CHANGE>
R10Y

>  <NUMERIC VALUE>
1.79

$$$$
>  <SEQUENCE CHANGE>
Q2K

>  <NUMERIC VALUE>
2.19

$$$$
>  <SEQUENCE CHANGE>
L22C

>  <NUMERIC VALUE>
2.6

$$$$
>  <SEQUENCE CHANGE>
V13M

>  <NUMERIC VALUE>
1.9

$$$$
>  <SEQUENCE CHANGE>
Q17K

>  <NUMERIC VALUE>
2.1

$$$$
>  <SEQUENCE CHANGE>
E24S

>  <NUMERIC VALUE>
2.78

$$$$
>  <SEQUENCE CHANGE>
V13W

>  <NUMERIC VALUE>
1.16

$$$$
>  <SEQUENCE CHANGE>
L22P

>  <NUMERIC VALUE>
2.94

$$$$
>  <SEQUENCE CHANGE>
K23S

>  <NUMERIC VALUE>
2.15

$$$$
>  <SEQUENCE CHANGE>
K18C

>  <NUMERIC VALUE>
1.94

$$$$
>  <SEQUENCE CHANGE>
E24K

>  <NUMERIC VALUE>
1.99

$$$$
>  <SEQUENCE CHANGE>
K18G

>  <NUMERIC VALUE>
2.4

$$$$
>  <SEQUENCE CHANGE>
Q17A

>  <NUMERIC VALUE>
2.1

$$$$
>  <SEQUENCE CHANGE>
I4Q

>  <NUMERIC VALUE>
1.85

$$$$
>  <SEQUENCE CHANGE>
W12M

>  <NUMERIC VALUE>
2.42

$$$$
